Recorded values, source patent US20230391786A1.

Test system: cGAS activity in THP1 cells (IFNb as marker)
assay.overview: Cellular assay to measure cGAS activity (IFNb production in PMA-differentiated THP1 cells stimulated by RDG-Adenovirus-GFP)
Assay type: cell-based, human
measurement.conditions: Homo sapiens, THP-1, THP1 cells, PMA differentiated, RDG-Adenovirus-GFP 1000 MOI, IFNb AlphaLISA, overnight incubation; read-out: IC50 (μM), Cellular assay for Compounds 95-348
endpoint.name: IC50 (µM)

Check out these entries, answers already filled in.
| chemical.structure | endpoint.name | unit.abbrev | numeric.result |
| --- | --- | --- | --- |
| F[C@H]1C[C@@H](Nc2cc(Cl)c(Cl)c3[nH]cc(-c4cn[nH]c4)c23)C1 | IC50 | µM | 2.54 |
| O=C(CO)NCc1[nH]c2c(Cl)c(Cl)ccc2c1-c1cn[nH]c1 | IC50 | µM | 0.761 |
| CCNc1cc(Cl)c(Cl)c2c1c(-c1cn[nH]c1)c1n2CCN(C(=O)CO)C1 | IC50 | µM | 1.54 |

[I] O=C(Cc1cnccn1)N1CCn2c(c(-c3cn[nH]c3)c3ccc(Cl)c(Cl)c32)C1
[II] O=C(NCc1[nH]c2c(Cl)c(Cl)ccc2c1-c1cn[nH]c1)C1COC1
Query: Looking at I and II , which one comes out lower in IC50 terms? Please identify the chosen entry by its label.
Result: II

====

target.or.test.system: recombinant human cGAS (Homo sapiens (Human), UniProt Q8N884)
Sequence (Q8N884 whole entry): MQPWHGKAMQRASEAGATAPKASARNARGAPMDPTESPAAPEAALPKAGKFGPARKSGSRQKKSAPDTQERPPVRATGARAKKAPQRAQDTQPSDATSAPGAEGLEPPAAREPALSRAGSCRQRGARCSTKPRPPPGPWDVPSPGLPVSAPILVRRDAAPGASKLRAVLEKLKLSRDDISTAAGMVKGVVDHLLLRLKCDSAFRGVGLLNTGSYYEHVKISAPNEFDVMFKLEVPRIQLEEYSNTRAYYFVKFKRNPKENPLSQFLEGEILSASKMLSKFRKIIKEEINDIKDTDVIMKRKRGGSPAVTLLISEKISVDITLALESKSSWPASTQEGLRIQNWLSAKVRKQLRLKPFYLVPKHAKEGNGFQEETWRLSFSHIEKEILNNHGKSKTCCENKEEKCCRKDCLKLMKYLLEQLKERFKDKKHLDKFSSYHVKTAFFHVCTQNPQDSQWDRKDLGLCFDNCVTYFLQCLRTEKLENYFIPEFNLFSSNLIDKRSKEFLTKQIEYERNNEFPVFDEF
assay.overview: In vitro inhibition assay of cGAS activity (cGAMP production, RapidFire mass spectrometry)
Assay type: biochemical
measurement.conditions: 10 nM recombinant human cGAS, 60 nM 75-bp dsDNA, ATP, GTP, room temperature 3 hours, read-out: IC50 (μM), In vitro inhibition assay for Compounds 1-94
endpoint.name: IC50 (µM)

Check out these entries, answers already filled in.
| molecule | unit.abbrev | IC50 |
| --- | --- | --- |
| CNC(=O)N1CCn2c(c(-c3cn[nH]c3)c3ccc(Cl)c(Cl)c32)C1 [Example 39] | µM | 0.0392 |
| O=C(O)C1CCCn2c(c(-c3cn[nH]c3)c3ccc(Cl)c(Cl)c32)C1 (single isomer, unassigned) [Example 24] | µM | 0.0834 |
| OCCOc1cc(Cl)c(Cl)c2[nH]cc(-c3cn[nH]c3)c12 [Example 57] | µM | 0.0352 |
| N#Cc1c(Cl)ccc2c(-c3cn[nH]c3)c[nH]c12 [Example 93] | µM | 0.18 |
| O=C1CCn2c(c(-c3cn[nH]c3)c3ccc(Cl)c(Cl)c32)N1 [Example 55] | µM | 0.0946 |
| Cc1[nH]c2c(Cl)c(Cl)ccc2c1-n1ccnc1 [Example 4] | µM | 0.0641 |
| OCC1CCn2c(c(-c3cn[nH]c3)c3ccc(Cl)c(Cl)c32)C1 (single isomer, unassigned) [Example 16] | µM | 0.0674 |
| CCOc1cc(Cl)c(Cl)c2[nH]cc(-c3cn[nH]c3)c12 [Example 56] | µM | 0.0826 |
| O=C1CCCN1C1CCc2c(-c3cn[nH]c3)c3ccc(Cl)c(Cl)c3n2C1 (stereo not drawn) [Example 74] | µM | 0.0847 |
| CN1CCOC(C(=O)N2CCn3c(c(-c4cn[nH]c4)c4ccc(Cl)c(Cl)c43)C2)C1 (stereo not drawn) [Example 50] | µM | 0.04 |

[I] O=C(Cn1cncn1)N1CCn2c(c(-c3cn[nH]c3)c3ccc(Cl)c(Cl)c32)C1 [Example 43]
[II] O=C1CCc2c(-c3cn[nH]c3)c3ccc(Cl)c(Cl)c3n2C1 [Example 17]
[III] O=C(CO)N1CCn2c(c(-c3cn[nH]c3)c3ccc(Cl)c(Cl)c32)C1 [Example 53]
Query: Put these in order: smallest IC50 first, largest last. Submit the labels in the order that the ranking request calls for.
Result: III, II, I

[A] CC(=O)N1CCOC(CC(=O)N2CCn3c(c(-c4cn[nH]c4)c4ccc(Cl)c(Cl)c43)C2)C1 (stereo not drawn) [Example 82]
[B] Clc1ccc2c(-c3cn[nH]c3)cn(-c3cn[nH]n3)c2c1Cl [Example 34]
Query: Looking at A and B , which one comes out lower in IC50 terms? Please identify the chosen entry by its label.
Result: A

[1] CN(C)C(=O)CCC(=O)N1CCn2c(c(-c3cn[nH]c3)c3ccc(Cl)c(Cl)c32)C1 [Example 44]
[2] CS(=O)(=O)N1CCn2c(c(-c3cn[nH]c3)c3ccc(Cl)c(Cl)c32)C1 [Example 41]
Query: Looking at 1 and 2 , which one comes out lower in IC50 terms? Please identify the chosen entry by its label.
Result: 2
(2: 0.0328 µM, 1: 0.0534 µM)

====

target.or.test.system: recombinant human cGAS (Homo sapiens (Human), UniProt Q8N884)
assay.overview: In vitro inhibition assay of cGAS activity (cGAMP production, RapidFire mass spectrometry)
Format: biochemical
measurement.conditions: 10 nM recombinant human cGAS, 60 nM 75-bp dsDNA, ATP, GTP, room temperature 3 hours, read-out: IC50 (μM), In vitro inhibition assay for Compounds 1-94
Where a name gives a salt, the structure may show the parent alone.
endpoint.name: IC50 (µM)

| molecule | numeric.result |
| --- | --- |
| O=C(O)Cn1cc(-n2cc(-c3cn[nH]c3)c3ccc(Cl)c(Cl)c32)cn1 | 0.0535 |
| O=C(Cc1[nH]c2c(Cl)c(Cl)ccc2c1-c1cn[nH]c1)NCc1cnccn1 | 0.064 |
| Clc1ccc2c(-c3cn[nH]c3)c3n(c2c1Cl)CCNC3 [Example 37, hydrochloride] | 0.09 |
| O=C1Cn2c(c(-c3cn[nH]c3)c3ccc(Cl)c(Cl)c32)CCN1CCO | 0.0753 |
| CS(=O)(=O)NC1CCc2c(-c3cn[nH]c3)c3ccc(Cl)c(Cl)c3n2C1 (single isomer, unassigned) [Example 23] | 0.0887 |

[I] COCc1nnc(CN2CCn3c(c(-c4cn[nH]c4)c4ccc(Cl)c(Cl)c43)C2)o1 [Example 47, formic acid salt]
[II] OCCC1CCc2c(-c3cn[nH]c3)c3ccc(Cl)c(Cl)c3n2C1 (stereo not shown)
Query: Quick check, higher IC50 between I and II ? Please identify the chosen entry by its label.
Result: II
(II: 0.062 µM, I: 0.0333 µM)

====

System: cGAS activity in THP1 cells (IFNb as marker)
assay.overview: Cellular assay to measure cGAS activity (IFNb production in PMA-differentiated THP1 cells stimulated by RDG-Adenovirus-GFP)
Type: cell-based, human
measurement.conditions: Homo sapiens, THP-1, THP1 cells, PMA differentiated, RDG-Adenovirus-GFP 1000 MOI, IFNb AlphaLISA, overnight incubation; read-out: IC50 (μM), Cellular assay for Compounds 95-348
# Lookup of reported IC50 keyed by entry

| compound | IC50 |
| --- | --- |
| COCCC(=O)NC1CCn2c1c(-c1cn[nH]c1)c1ccc(Cl)c(Cl)c12 (stereo not drawn) | > 10 µM |
| CN(C)C(=O)COCC(=O)N1CCn2c(c(-c3cn[nH]c3)c3ccc(Cl)c(Cl)c32)C1 | > 10 µM |

Query: IC50; subject: CN1CC(C(=O)N2CCn3c(c(-c4cn[nH]c4)c4ccc(Cl)c(Cl)c43)C2)CCC1=O (stereo not drawn)
Result: > 10 µM

====

System: cGAS activity in THP1 cells (IFNb as marker)
assay.overview: Cellular assay to measure cGAS activity (IFNb production in PMA-differentiated THP1 cells stimulated by RDG-Adenovirus-GFP)
Assay type: cell-based, human
measurement.conditions: Homo sapiens, THP-1, THP1 cells, PMA differentiated, RDG-Adenovirus-GFP 1000 MOI, IFNb AlphaLISA, overnight incubation; read-out: IC50 (μM), Cellular assay for Compounds 95-348
endpoint.name: IC50 (µM)

Check out these entries, answers already filled in.
| compound | unit.abbrev | IC50 |
| --- | --- | --- |
| CN1CCO[C@@H](C(=O)N2CCn3c(c(-c4cn[nH]c4)c4c(OCC#N)cc(Cl)c(Cl)c43)C2)C1 | µM | 1 |
| CC(=S)Nc1cc(Cl)c(Cl)c2[nH]cc(-c3cn[nH]c3)c12 | µM | 1.01 |

[1] O=C(Cc1ccn[nH]1)N1CCn2c(c(-c3cn[nH]c3)c3ccc(Cl)c(Cl)c32)C1
[2] OCCCOc1cc(Cl)c(Cl)c2c1c(-c1cn[nH]c1)c1n2CC(O)CC1 (stereo not drawn)
Query: Quick check, higher IC50 between 1 and 2 ? Please identify the chosen entry by its label.
Result: 1
(1: 9.93 µM, 2: 0.365 µM)

====

target.or.test.system: recombinant human cGAS (Homo sapiens (Human))
assay.overview: In vitro inhibition assay of cGAS activity (cGAMP production, RapidFire mass spectrometry)
Assay type: biochemical
measurement.conditions: 10 nM recombinant human cGAS, 60 nM 75-bp dsDNA, ATP, GTP, room temperature 3 hours, read-out: IC50 (μM), In vitro inhibition assay for Compounds 95-348
endpoint.name: IC50 (µM)

| compound | unit.abbrev | numeric.result |
| --- | --- | --- |
| O=C(CO)NC1CCc2c(-c3cn[nH]c3)c3ccc(Cl)c(Cl)c3n2C1 (stereo not drawn) [Example 95] | µM | 0.0159 |

[I] CC(=O)NC1CCCn2c1c(-c1cn[nH]c1)c1ccc(Cl)c(Cl)c12 (stereo not drawn) [Example 116]
[II] FCCNc1cc(Cl)c(Cl)c2[nH]cc(-c3cn[nH]c3)c12 [Example 123]
[III] CC(=O)NCC(=O)NCc1[nH]c2c(Cl)c(Cl)ccc2c1-c1cn[nH]c1 [Example 106]
[IV] CC(=O)N1CCn2c(c(-c3cn[nH]c3)c3c(NCCCO)cc(Cl)c(Cl)c32)C1 [Example 253]
[V] CS(=O)(=O)NC1Cc2c(-c3cn[nH]c3)c3ccc(Cl)c(Cl)c3n2C1 (stereo not drawn) [Example 246]
Query: Please give the order of these compounds when sorted by IC50, largest value leading. Submit the labels in the order that the ranking request calls for.
Result: III, V, I, IV, II
(III: 0.0561 µM, V: 0.0313 µM, I: 0.0217 µM, IV: 0.014 µM, II: 0.00491 µM)
